These entries and their values trace back to PubChem BioAssay.

PROCEDURE_DETAILS: cell viability in Huh7 cells, primary screen, cytotoxicity control for HCV replication inhibitor project, CellTiter-Glo luminescence, basal, 48 h (AID 1143);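 also: Huh7 hepatoma cells carrying a hepatitis C replication reporter with no stimulus; test concentration not given here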
RUN_CONDITIONS: Huh7 HCV replicon, higher = more signal, called active from +8 up or from −8 down
MEASUREMENT_TYPE: z-score
Returns: the value as a bare number; no unit string appended.

Looking for the measured z-score of `COCCCNC(=O)[C@@]1(Cc2ccccc2N=[N+]=[N-])N=C(c2ccc(OCCCO)cc2)O[C@H]1c1ccccc1N=[N+]=[N-]` , can you help? -4.63

Looking for the measured z-score of `O=C1O[C@H](c2ccccc2)[C@H](c2ccccc2)N2[C@H]1[C@@H](C(=O)NC[C@H](O)c1ccccc1)[C@]1(C(=O)Nc3ccccc31)[C@H]2c1ccc(OCCO)cc1` , can you help? -2.93

Looking for the measured z-score of `CC(C)(C)OC(=O)CC[C@]12N=C(c3ccc(OCCCO)cc3)O[C@H]1c1ccccc1N(CCS(=O)(=O)c1ccccc1)C2=O` , can you help? -2.91
